# Test system: Cerebellar granule neurone
# experiment.summary: Neuroprotective activity against glutamate-induced excitotoxicity in mouse primary cerebellar granule neurons assessed as increase in cell viability preincubated for 2 hrs followed by glutamate challenge measured after 24 hrs by MTT assay
# Type: functional
measured.attribute: pEC50
pEC50 here: minus log base 10 of the concentration, concentration in moles per litre.

Return value of pEC50 for input CC12CC3CC(N)(C1)CC(CO[N+](=O)[O-])(C3)C2 (configuration not stated) , no commentary. 4.60

Report pEC50, nothing else, for this compound: CCCC12CC3CC(N)(C1)CC(CCCO[N+](=O)[O-])(C3)C2 (configuration not stated) 4.24

Indicate the recorded pEC50 value for this compound: CC(CO[N+](=O)[O-])CC12CC3CC(N)(C1)CC(CC(C)CO[N+](=O)[O-])(C3)C2 (configuration not stated) 4.27

Could you please provide reported pEC50 for CC12CC3CC(N)(C1)CC(CCCO[N+](=O)[O-])(C3)C2 (configuration not stated) ? Thanks! 4.40

Item CC12CC3CC(N)(C1)CC(O[N+](=O)[O-])(C3)C2 (configuration not stated) : provide pEC50 4.61

Retrieve pEC50 measured for CC(CC12CC3CC(N)(C1)CC(CC(C)O[N+](=O)[O-])(C3)C2)O[N+](=O)[O-] (configuration not stated) and print it. 4.37

Tell us which pEC50 value is on record for CC12CC3CC(C)(C1)CC(N)(C3)C2 [MEMANTINE] 5.61

Annotate the compound CCC12CC3CC(N)(C1)CC(CC(C)CO[N+](=O)[O-])(C3)C2 (configuration not stated) with its measured pEC50. 4.26

Answer with reported pEC50 of CCC12CC3CC(N)(C1)CC(CCCO[N+](=O)[O-])(C3)C2 (configuration not stated) 4.45

// fetch pEC50 given entry CCCC12CC3CC(N)(C1)CC(O[N+](=O)[O-])(C3)C2 (configuration not stated) 4.77

Output pEC50 of CCC12CC3CC(N)(C1)CC(CO[N+](=O)[O-])(C3)C2 (configuration not stated) 4.97

Supply pEC50 value. Item: "NC12CC3CC(CCCO[N+](=O)[O-])(C1)CC(CCCO[N+](=O)[O-])(C3)C2" 4.40

Tell me pEC50 reported for CCCC12CC3CC(N)(C1)CC(CO[N+](=O)[O-])(C3)C2 (configuration not stated) 4.42

Supply measured pEC50 of CCC12CC3CC(N)(C1)CC(CC(C)O[N+](=O)[O-])(C3)C2 (configuration not stated) in your reply. 4.23

Quick one: give measured pEC50 for "NC12CC3CC(CCO[N+](=O)[O-])(C1)CC(CCO[N+](=O)[O-])(C3)C2" 4.59

Please give measured pEC50 of the following entry: "NC12CC3CC(CO[N+](=O)[O-])(C1)CC(CO[N+](=O)[O-])(C3)C2" 4.72

Give the reported value of pEC50 for this record: CCC12CC3CC(N)(C1)CC(O[N+](=O)[O-])(C3)C2 (configuration not stated) 4.81

---

Provide the recorded Emax for the entries that follow.
# Test system: Aorta
# experiment.summary: Vasodilating activity in Sprague-Dawley rat aortic ring precontracted with phenylephrine in absence of endothelium
# Assay type: functional, tissue-based
Answer in %, number only, no unit symbol.

Dear colleague, please send me the reported Emax for "NC12CC3CC(CO[N+](=O)[O-])(C1)CC(CO[N+](=O)[O-])(C3)C2" when you can. 90.5

Read off the recorded Emax for CC(CO[N+](=O)[O-])CC12CC3CC(N)(C1)CC(CC(C)CO[N+](=O)[O-])(C3)C2 (stereo not given) 95.8

Tell us which Emax value is on record for "NC12CC3CC(CCO[N+](=O)[O-])(C1)CC(CCO[N+](=O)[O-])(C3)C2" 99.4

Output Emax of CCC12CC3CC(N)(C1)CC(CCCO[N+](=O)[O-])(C3)C2 (stereo not given) 89.8

Assign Emax to the following record: "NC12CC3CC(CCCO[N+](=O)[O-])(C1)CC(CCCO[N+](=O)[O-])(C3)C2" 95.4
